- Target Of Assay: T1, human CD28 (human, UniProt P10747 19-220)
- T1 construct: whole, on cells
- Assay Name: flow cytometry, cells with human CD28; protein from CHO
Measured MFI accompanies every entry in the list below.
Note: unit MFI is implicit; provide only the numeric part.

Some solved cases for reference:
- Binder: "ICOSL ECD Truncation #6 with N52H/N57Y/Q100R/C198R (Fc fusion, not shown: a dimerising Fc or GST, Made in CHO cells) DTQEKEVRAMVGSDVELSCACPEGSRFDLNDVYVYWQTSESKTVVTYHIPQHSSLEYVDSRYRNRALMSPAGMLRGDFSLRLFNVTPQDEQKFHCLVLSRSLGFQEVLSVEVTLHVAANFSVPVVSAPHSPSQDELTFTCTSINGYPRPNVYWINKTDNSLLDQALQNDTVFLNMRGLYDVVSVLRIARTPSVNIGCRIENVLL"
  Output Unit: "MFI"
  MFI: 84600
- Binder: "ICOSL ECD Truncation #5 with N52H/N57Y/Q100R/C198R (Fc fusion, not shown: a dimerising Fc or GST, Made in CHO cells) DTQEKEVRAMVGSDVELSCACPEGSRFDLNDVYVYWQTSESKTVVTYHIPQHSSLEYVDSRYRNRALMSPAGMLRGDFSLRLFNVTPQDEQKFHCLVLSRSLGFQEVLSVEVTLHVAANFSVPVVSAPHSPSQDELTFTCTSINGYPRPNVYWINKTDNSLLDQALQNDTVFLNMRGLYDVVSVLRIARTPSVNIGCRIENVLLQQ"
  Output Unit: "MFI"
  MFI: 86300
- Binder: "ICOSL ECD with N52H/N57Y/Q100R/C198R (Table 18) (Fc fusion, not shown: a dimerising Fc or GST, Made in CHO cells; May be the same construct as m37) DTQEKEVRAMVGSDVELSCACPEGSRFDLNDVYVYWQTSESKTVVTYHIPQHSSLEYVDSRYRNRALMSPAGMLRGDFSLRLFNVTPQDEQKFHCLVLSRSLGFQEVLSVEVTLHVAANFSVPVVSAPHSPSQDELTFTCTSINGYPRPNVYWINKTDNSLLDQALQNDTVFLNMRGLYDVVSVLRIARTPSVNIGCRIENVLLQQNLTVGSQTGNDIGERDKITENPVSTGEKNAAT"
  Output Unit: "MFI"
  MFI: 59200

Please find the next binder below.
For reference, reported MFI for ICOSL ECD Truncation #7 with N52H/N57Y/Q100R/C198R and E90K/E111G (Fc fusion, not shown: a dimerising Fc or GST, Made in CHO cells) DTQEKEVRAMVGSDVELSCACPEGSRFDLNDVYVYWQTSESKTVVTYHIPQHSSLEYVDSRYRNRALMSPAGMLRGDFSLRLFNVTPQDKQKFHCLVLSRSLGFQEVLSVGVTLHVAANFSVPVVSAPHSPSQDELTFTCTSINGYPRPNVYWINKTDNSLLDQALQNDTVFLNMRGLYDVVSVLRIARTPSVNIGCRIEN stands at 38900
